Assay: small molecules captured by biotinylated probe aFST – biochemical, small-molecule microarray, fluorescence 635/667, stem cell growth factor project, primary screen (AID 1086);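 further: score merges 667 nm fluorescence with signal-to-noise of each printed compound spot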
Details: higher = more signal
Below, each of the compounds is paired with its reported composite z-score value.
Give your answer as a number; write no unit.

Compound	composite z-score
O=C1[C@H]2C=C(Br)[C@H](C[C@@H]2OCCOCCO)[C@@]12CO2	0.0751
COc1ccc([Si](C)(C)[C@@H]2[C@@H](CCO)O[C@]3(C(=O)N(Cc4cccc(N5CCCCC5=O)c4)c4ccccc43)[C@H]2C)cc1	0.263
COCCOC(=O)N1C(=O)[C@@]2(c3cc(C#Cc4ccc(OC)cc4)ccc31)[C@H](c1ccc(O)cc1)N1[C@H](c3ccccc3)[C@H](c3ccccc3)OC(=O)[C@H]1[C@@H]2C(=O)N1CCN(c2ncccn2)CC1	0.619
Oc1ccc2cc[n+](Cc3cccc(OC(F)(F)F)c3)cc2c1	0.191
CCN(CC)c1ccc(N2CC=CC34O[C@@H]5/C=C\CCCOC(=O)C5[C@H]3C(=O)N(CCCO)[C@@H]4C2=O)cc1 (some centres undefined)	-1.19
Cc1ccc(S(=O)(=O)N2CC(C(=O)O)=CCC2c2ccccc2)cc1 (centres undefined)	-0.513
COc1ccc(C(=O)Nc2cccc(CN3C(=O)[C@@]4(O[C@@H](CCn5cc([C@H](O)c6ccccc6)nn5)[C@H]([Si](C)(C)c5ccc(OC)cc5)[C@H]4C)c4ccccc43)c2)cc1	0.179
COc1ccc([Si](C)(C)[C@H]2[C@H](CCO)O[C@@]3(C(=O)N(Cc4cccc(N5C(=O)c6cccc7cccc5c67)c4)c4ccccc43)[C@@H]2C)cc1	-0.26
CO[C@H]1O[C@H](CO)[C@@H](OC(=O)Nc2ccc(C(F)(F)F)cc2)[C@H](OC(=O)Nc2ccccc2)[C@@H]1OC(=O)Nc1ccccc1	0.234
O=C1O[C@@H](c2ccccc2)[C@@H](c2ccccc2)N2[C@@H](c3ccc(O)cc3)[C@]3(C(=O)Nc4ccc(C#CCCO)cc43)[C@@H](C(=O)O)[C@H]12	2.44

Input: What does the data say about its composite z-score? Entry: CCCNC(=O)[C@@]1(C)c2ccccc2C(=O)N(Cc2cc(C(F)(F)F)cc(C(F)(F)F)c2)[C@H]1c1ccc(CO)cc1
Output: -0.0368

Input: What does the data say about its composite z-score? Entry: Cc1c(NC(=O)/C(C#N)=C/C=C/c2ccccc2)c(=O)n(-c2ccccc2)n1C
Output: 0.003

Input: What does the data say about its composite z-score? Entry: [N-]=[N+]=NCc1ccccc1C[C@]1(C(=O)NCCN2CCOCC2)N=C(c2ccc(OCCCO)cc2)O[C@H]1c1ccccc1CN=[N+]=[N-]
Output: 1.26

Input: What does the data say about its composite z-score? Entry: CC(=O)NCCCC[C@@H]1NC(=O)[C@@H]2C[C@H](C(=O)NCc3ccc(F)cc3)[C@H](c3ccc(O)cc3)N2C1=O
Output: -0.21
